Source listed as ChEMBL document CHEMBL1201862.

Below, each entry is listed with its recorded GI50.
test system: UACC-62; assay: NCI tumour cell line growth inhibition, 48 h
Calls of active or inactive are those of the source. No stated cut-off is given here; in the data, active = GI50 up to about 1.1 µM and inactive = higher.

compound | GI50
CC(C)(C)C1CCC(CI)(N=[N+]=[N-])CC1 (stereo not drawn) | > 100 µM (inactive)
O=C1OC(c2ccc(Cl)c3ccccc23)c2ccccc21 (stereo not drawn) | 63.2 µM (inactive)
C[N+](C)(N)Cc1nc(-c2ccc(Cl)cc2)no1 | > 100 µM (inactive)
COC(=O)C1=CO[C@@H](OC2CC(CO)C(O)C(O)C2O)[C@@H]2[C@@H](C)[C@@H](OC(=O)/C=C/c3ccccc3)[C@@H](O)[C@H]12.COC(=O)C1=CO[C@@H](OC2CC(CO)C(O)C(O)C2O)[C@@H]2[C@@H](C)[C@@H](OC(=O)c3ccccc3)[C@@H](O)[C@H]12 (stereo partly drawn) | > 100 µM (inactive)
Cc1noc(-c2ccc(C(=O)O)[nH]2)c1Br | 64.6 µM (inactive)
O=[N+]([O-])c1cccc2nc3ccccc3c(NCCO)c12 | 0.00237 µM (active)
O=C(Cc1cc[n+]([O-])cc1)C(=O)Nc1cc(Cl)c(Cl)cc1Cl | > 100 µM (inactive)
COc1ccc2c(c1)CCC(OS(=O)(=O)CC13CCC(CC1=O)C3(C)C)C2=O (stereo not drawn) | 16.9 µM (inactive)
